# Tested on: OVCAR-8 ovarian
# assay.comment: NCI-60 one-dose screen, 48 h (100 = growth as untreated, 0 = no growth, -100 = all killed)
# measurement.conditions: 10 µM unless noted
This is part of a sample that, as a whole, favours compounds with a hit. Of some 83,000 tested, about 20% had one in any assay. Calls of active or inactive are those of the source. The calls were made as follows: active = growth percent below 10; inactive = the rest.
endpoint.name: growth

Below are worked cases with known answers.
molecule	endpoint.name	result
CNC(=O)c1cc(Oc2ccc3nc(Nc4ccc(Cl)c(C(F)(F)F)c4)ccc3c2)ccn1	growth	58.4% (inactive)
COc1ccc(/C=C/c2c(C(=O)/C=C/c3cccs3)c(C)nc3ccccc23)cc1	growth	77% (inactive)
CCN1C(=O)N(CC)C2C1NN=c1s/c(=C\c3cccs3)c(=O)n12 (centres undefined)	growth	16.9% (inactive)
CC(C)C(=O)Nc1n[nH]c2cc(-c3cccc(NS(=O)(=O)C4CC4)c3)ccc12	growth	82.2% (inactive)
CC(C)C(NC(=O)C1(NC(=O)OCc2ccccc2)CCCC1)C(=O)O (centres undefined)	growth	110% (inactive)
C(=N\Nc1ncc(-c2cc3cc4c(cc3o2)OCO4)s1)/c1ccco1	growth	23.7% (inactive)
Cc1cccc(-c2nc(N(C)c3ccc4ncsc4c3)c3ccccc3n2)n1	growth	91.2% (inactive)
O=[N+]([O-])c1ccc(-c2cc(-c3ccc(Nc4nc(Nc5ccc(Cl)cc5)nc(Nc5ccc(Cl)cc5)n4)cc3)no2)cc1	growth	99% (inactive)
COc1ccc(-c2nc(SCCC(C)C)nc(N/N=C\c3ccccc3O)c2C#N)cc1	growth	75.4% (inactive)
COc1cc(N=Nc2ccc(N)cc2)c(OC)cc1N=Nc1ccccc1.[Cl][Zn][Cl]	growth	98.8% (inactive)

QUERY: Using the record for "CCN(CC)CCN1C(=O)c2c(c(C)c3c(oc4cc(O)ccc43)c2C)C1=O" , report its growth.
RESULT: -62.6% (active)

QUERY: Using the record for COc1cc(C2CC(=O)Nc3c2c(C)nn3-c2nc3ccccc3[nH]2)c(OC)c2c1OCO2 (centres undefined) , report its growth.
RESULT: 67.9% (inactive)

QUERY: Which measured growth value corresponds to "Nc1cc2c3c(cccc3c1)C(=O)N(CCN1CCCC1)C2=O" ?
RESULT: 34.4% (inactive)
